Task for the reader: assign each of the following molecules its reported Ki.
# experimental.target: hCA I (Homo sapiens)
# Construct: gene CA1; recombinant
# Sequence (P00915 2-261): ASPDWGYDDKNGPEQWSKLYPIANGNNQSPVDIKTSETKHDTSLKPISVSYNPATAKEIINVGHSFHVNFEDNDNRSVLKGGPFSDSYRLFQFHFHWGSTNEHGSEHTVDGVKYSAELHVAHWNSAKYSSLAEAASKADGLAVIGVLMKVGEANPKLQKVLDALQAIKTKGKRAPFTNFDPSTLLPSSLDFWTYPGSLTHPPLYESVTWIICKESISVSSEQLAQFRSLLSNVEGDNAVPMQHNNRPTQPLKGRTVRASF
# assay.method.text: biochemical
# Parameters: stopped-flow CO2 hydration assay, phenol red indicator 557 nm, recombinant human CA, 15 min preincubation
Numbers only, in nM.

Each molecule below has a recorded value; state its Ki.
1. NS(=O)(=O)c1ccc(CCNc2nc(NCCc3ccc(S(N)(=O)=O)cc3)nc(Nc3ccc(/C=C/c4cccc(O)c4)cc3)n2)cc1
2. NS(=O)(=O)c1ccc(CCNc2nc(Nc3ccc(O)cc3)nc(Nc3ccc(/C=C/c4ccc(O)cc4)cc3)n2)cc1
3. NS(=O)(=O)c1ccc(CCNc2nc(NCc3ccc(S(N)(=O)=O)cc3)nc(Nc3ccc(/C=C/c4ccc(O)cc4)cc3)n2)cc1

1: 608; 2: 4060; 3: 859
